Target: Ribosome
Assay: Inhibition of protein biosynthesis at the level of the peptidyl transferase center of the 50 s ribosomal subunit
READOUT: Kd

Given the entry O=C(N[C@H](CO)[C@H](O)c1ccc([N+](=O)[O-])cc1)C(Cl)Cl [CHLORAMPHENICOL] , report its measured Kd. ~1000 nM
